Assay: Displacement of [3H]Ro15-1788 from recombinant rat GABAAalpha2/beta2/gamma2 receptor after 90 mins by liquid scintillation counting method
reported_property: Ki (µM)

A selection of reference data follows.
{"columns": ["molecule", "measurement_unit", "result"],
 "data": [
  ["O=c1c(-c2cc[nH]n2)n[nH]c2c(-c3cccc(F)c3)cnn12", "µM", 0.632],
  ["O=c1c(-c2cc[nH]n2)n[nH]c2c(-c3ccccc3)cnn12", "µM", 3]
]}

[P] O=c1c(-c2cc[nH]n2)n[nH]c2c(-c3ccc(F)cc3)cnn12
[Q] O=c1c(-c2cc[nH]n2)n[nH]c2c(-c3cccc(Cl)c3)cnn12
[R] O=c1c(-c2cc[nH]n2)n[nH]c2c(-c3cccnc3)cnn12
[S] O=c1c(-c2cc[nH]n2)n[nH]c2c(-c3cccs3)cnn12
[T] O=c1c(-c2cc[nH]n2)n[nH]c2c(-c3ccccn3)cnn12
Query: Hi! Can you put these in order of Ki, lowest number first? Lab note: final answer is the ordered label list.
Result: T, S, Q, P, R
(T: 0.012 µM, S: 0.0412 µM, Q: 0.99 µM, P: 2.42 µM, R: 5 µM)
